Target: P-selectin (Homo sapiens)
Construct: P-selectin is isolated from human platelet lysates
Sequence (P16109 42-830): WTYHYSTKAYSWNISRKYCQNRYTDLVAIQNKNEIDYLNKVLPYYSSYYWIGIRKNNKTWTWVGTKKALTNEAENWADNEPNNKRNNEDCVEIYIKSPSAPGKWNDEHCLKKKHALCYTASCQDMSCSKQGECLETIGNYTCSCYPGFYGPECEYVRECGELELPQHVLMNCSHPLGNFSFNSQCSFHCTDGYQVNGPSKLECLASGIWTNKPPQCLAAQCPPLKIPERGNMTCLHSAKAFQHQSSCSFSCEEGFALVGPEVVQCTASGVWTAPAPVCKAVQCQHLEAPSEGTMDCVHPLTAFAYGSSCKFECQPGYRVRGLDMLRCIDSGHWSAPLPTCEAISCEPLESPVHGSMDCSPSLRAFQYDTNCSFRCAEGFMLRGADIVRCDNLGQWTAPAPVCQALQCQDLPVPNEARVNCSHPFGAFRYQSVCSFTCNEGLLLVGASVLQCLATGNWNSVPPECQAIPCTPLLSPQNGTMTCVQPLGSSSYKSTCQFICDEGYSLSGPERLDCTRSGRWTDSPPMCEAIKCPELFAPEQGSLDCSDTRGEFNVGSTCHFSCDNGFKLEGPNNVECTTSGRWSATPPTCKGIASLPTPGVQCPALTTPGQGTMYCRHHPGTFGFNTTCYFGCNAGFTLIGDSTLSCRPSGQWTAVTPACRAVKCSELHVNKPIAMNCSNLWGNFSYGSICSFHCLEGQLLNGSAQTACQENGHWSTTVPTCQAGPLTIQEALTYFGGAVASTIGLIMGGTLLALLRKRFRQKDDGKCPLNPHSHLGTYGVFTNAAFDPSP
Assay: Inhibition of human neutrophil adhesion to purified P-selectin immobilized on plastic wells
Settings: inhibiting the binding of human neutrophils to P-selectin
Where a SMILES comes first, the peptide text is derived from it. Bridges are numbered along the chain shown (N, C = ends). [ ]: non-standard residue; d: D form.
PARAMETER_MEASURED: pIC50
pIC50 is a log-scale quantity: -log10 of the concentration expressed in molar.

Example entries begin here.
- COMPOUND: "CC(C)[C@@H](NC(=O)[C@@H](Cc1c[nH]c2ccccc12)NC(=O)[C@H](NC(=O)[C@@H](Cc1c[nH]c2ccccc12)NC(=O)[C@H]1CSSC[C@@H](NC(=O)[C@@H](CCCCN)NC(=O)[C@H](N)CCCNC(=N)N)C(=O)N[C@@H](Cc2c[nH]cn2)C(=O)N[C@@H](Cc2ccccc2)C(=O)N1)[C@H](C)O)C(N)=O [(94)] (H-[dR][dK][dC]HF[dC][dW][dT][dW][dV]-NH2; disulfide 3-6)"
  TARGET_OR_SYSTEM: "P-selectin (Homo sapiens)"
  QUANTITATIVE_READOUT: 5.66
- COMPOUND: "CC[C@H](C)[C@@H]1NC(=O)[C@H]([C@@H](C)CC)NC(=O)[C@H](NC(=O)[C@@H](CCCCN)NC(=O)[C@H](N)CCCNC(=N)N)CSSC[C@H](C(=O)N[C@H](Cc2c[nH]c3ccccc23)C(=O)N[C@@H](C(=O)N[C@H](Cc2c[nH]c3ccccc23)C(=O)N[C@@H](C(N)=O)C(C)C)[C@H](C)O)NC1=O [(49)] (H-[dR][dK][dC]II[dC][dW][dT][dW][dV]-NH2; disulfide 3-6)"
  TARGET_OR_SYSTEM: "P-selectin (Homo sapiens)"
  QUANTITATIVE_READOUT: 5.15

Reported pIC50 for CC(C)[C@@H](NC(=O)[C@@H](CCC(N)=O)NC(=O)[C@H](NC(=O)[C@@H](Cc1ccc(O)cc1)NC(=O)[C@H]1CSSC[C@@H](NC(=O)[C@@H](CCCCN)NC(=O)[C@H](N)CCCNC(=N)N)C(=O)NCC(=O)N[C@@H](Cc2ccccc2)C(=O)N1)[C@H](C)O)C(N)=O [(100)] (H-[dR][dK][dC]GF[dC][dY][dT][dQ][dV]-NH2; disulfide 3-6) : what is it?
4.05

Values from patent US5753617A
